Listed here are compounds together with their documented EC50.
- assayed_target: RXR-VDR heterodimer (Homo sapiens, UniProt P11473)
- Construct: add the Reporter gene pFR-LUC; and add the Gal-4-RXR-DEF and VP16-VDR-LBD
- Sequence (P11473 127-423 limits assumed): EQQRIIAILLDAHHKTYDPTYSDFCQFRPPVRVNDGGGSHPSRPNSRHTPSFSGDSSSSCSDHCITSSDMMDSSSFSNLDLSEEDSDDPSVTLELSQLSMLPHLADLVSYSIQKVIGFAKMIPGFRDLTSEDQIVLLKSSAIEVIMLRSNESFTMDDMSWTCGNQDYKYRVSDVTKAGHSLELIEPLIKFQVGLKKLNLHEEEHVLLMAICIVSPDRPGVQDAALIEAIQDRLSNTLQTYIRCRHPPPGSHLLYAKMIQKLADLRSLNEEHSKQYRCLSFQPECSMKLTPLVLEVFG
- Sequence (P19793 201-462 partner limits assumed): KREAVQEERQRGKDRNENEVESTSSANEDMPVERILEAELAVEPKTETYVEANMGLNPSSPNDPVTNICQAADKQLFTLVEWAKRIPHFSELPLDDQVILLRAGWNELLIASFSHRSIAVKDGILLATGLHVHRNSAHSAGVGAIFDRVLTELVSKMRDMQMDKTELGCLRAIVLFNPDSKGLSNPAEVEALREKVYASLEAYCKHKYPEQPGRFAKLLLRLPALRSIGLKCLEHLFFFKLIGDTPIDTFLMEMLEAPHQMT
- method_notes: RXR-VDR heterodimerization (SaOS-2 cells) test
- run_parameters: Gal-4-RXR-DEF / VP16-VDR-LBD, luciferase reporter
Quick reminder: number only, in nM, skip the unit.

{"compound": "CCC(CC)(c1ccc(OCC(O)C(C)(C)C)c(C)c1)c1ccc2cc(C(=O)O)ccc2c1 (single isomer, unassigned) [Ex. 2B]", "assayed_target": "RXR-VDR heterodimer (Homo sapiens, UniProt P11473)", "EC50 [nM]": 25.3}
{"compound": "CCC(CC)(c1ccc(OCC(=O)C(C)(C)C)c(C)c1)c1ccc2ccc(C(=O)O)cc2c1", "assayed_target": "RXR-VDR heterodimer (Homo sapiens, UniProt P11473)", "EC50 [nM]": 715}
{"compound": "CCC(Oc1ccc(C(CC)(CC)c2ccc3cc(C(=O)NCC(=O)O)ccc3c2)cc1C)C(O)C(C)(C)C (stereo not drawn)", "assayed_target": "RXR-VDR heterodimer (Homo sapiens, UniProt P11473)", "EC50 [nM]": 2.6}
{"compound": "CCC(CC)(c1ccc(OCC(=O)C(C)(C)C)c(C)c1)c1ccc2cc(C(=O)N(C)C)ccc2c1", "assayed_target": "RXR-VDR heterodimer (Homo sapiens, UniProt P11473)", "EC50 [nM]": 105}
{"compound": "CCC(CC)(c1ccc(OCC(=O)C(C)(C)C)c(C)c1)c1ccc2cc(C(=O)N(C)CC(=O)O)ccc2c1", "assayed_target": "RXR-VDR heterodimer (Homo sapiens, UniProt P11473)", "EC50 [nM]": 1}

Exercise: Find the recorded EC50 belonging to CCC(Oc1ccc(C(CC)(CC)c2ccc3cc(C(=O)N(C)CC(=O)O)ccc3c2)cc1C)C(O)C(C)(C)C (stereo not drawn) and report it.
Key: 2

Exercise: Using the record for CCC(CC)(c1ccc(OCC(O)C(C)(C)C)c(C)c1)c1ccc2cc(C(=O)O)ccc2c1 (single isomer, unassigned) [Ex. 2A] , report its EC50.
Key: 30.2

Exercise: # lookup: EC50 of CCC(CC)(c1ccc(OCC(=O)C(C)(C)C)c(C)c1)c1ccc2cc(C(=O)NCC(=O)O)ccc2c1
Key: 0.4

Exercise: Requested field: EC50. Item: CCC(CC)(c1ccc(OCC(=O)C(C)(C)C)c(C)c1)c1ccc2cc(C(=O)O)ccc2c1
Key: 40
